// data source = patent US9745318B2

- assay text: Fluorimetric titration against Ca2+ (cuvette calibration, Hill fit)
- Type: binding
- test settings: 100 mM KCl, 30 mM MOPS, pH 7.2; Hill fit; read-out: apparent dissociation constant for Ca2+
- Protocol: All the solvents were of analytical grade. Chemicals were purchased from commercial sources. ^1H-NMR and ^13C-NMR were measured on a Bruker avance 111-300 MHz spectrometer with chemical shifts reported in ppm (TMS as internal standard). Mass spectra were measured on a Focus GC/DSQ II spectrometer (ThermoScientific) for IC and an API 3000 spectrometer (Applied Biosystems, PE Sciex) for ES. […] Fluorescence spectra were recorded on a JASCO FP-8300 spectrofluorometer. […]
pKd: −log10 of the molar value.
Listing: pKd of selected molecules

{"molecule": "[N-]=[N+]=NCCCCCCOc1cc(OCCOc2cc(F)ccc2N(CC(=O)O)CC(=O)O)c(N(CC(=O)O)CC(=O)O)cc1C1=c2cc3c4c(c2Oc2c1cc1c5c2CCCN5CCC1)CCC[N+]=4CCC3 [Ic-2]", "pKd": 6.49}
{"molecule": "[N-]=[N+]=NCCCCCCOc1cc(OCCOc2ccc(Cl)cc2N(CC(=O)O)CC(=O)O)c(N(CC(=O)O)CC(=O)O)cc1C1=c2cc3c4c(c2Oc2c1cc1c5c2CCCN5CCC1)CCC[N+]=4CCC3 [Ic-1]", "pKd": 5.77}

* * *

- assay text: Fluorimetric titration against Ca2+ (cuvette calibration, Hill fit)
- Type: binding
- test settings: 100 mM KCl, 30 mM MOPS, pH 7.2; Hill fit; read-out: apparent dissociation constant (KD) for Ca2+
property measured: Kd (nM)

{"smiles notation": "[N-]=[N+]=NCCCCCCOc1cc(OCCOc2ccccc2N(CC(=O)O)CC(=O)O)c(N(CC(=O)O)CC(=O)O)cc1C1=c2cc3c4c(c2Oc2c1cc1c5c2CCCN5CCC1)CCC[N+]=4CCC3", "number": 258}
